Entries and their measured TGI follow.
- Tested on: OVCAR-8 ovarian
- test: NCI tumour cell line growth inhibition, 48 h

// below: answered molecules
Lab note: O=S(=O)(c1ccc(O)c(C=Nc2ccc(Cl)cc2)c1)c1ccc(O)c(C=Nc2ccc(Cl)cc2)c1 gave TGI of > 100 µM

The molecule listed as Cc1[nH]c(=O)[nH]c(=S)c1C(=O)Nc1cccc2cc3ccccc3cc12 has a reported TGI of > 100 µM

Given item C=[CH][Sn]([CH]=C)([O]c1cccc2cccnc12)[O]c1cccc2cccnc12 , the value recorded as its TGI is 18.2 µM

New cases:
Reported TGI of Cc1ccccc1OC(C)C(=O)NN1C(=O)CC(=O)N(c2ccccc2)C1=S (centres undefined) : > 100 µM

Per the records, this molecule ( COC(=O)c1c(C)nc(C)c(NO)c1-c1ccccc1C(F)(F)F ) has TGI equal to 33.2 µM

For reference, reported TGI for Cc1nc2ccc(Cl)cc2c2c1CCN2c1ccccc1 stands at 29.1 µM

###

Known GI50 of a selection of compounds
- System: EKVX NSCLC

I looked up OCNCCNc1nc2ccccc2c2[nH]c3ccccc3c12 and its GI50 for EKVX NSCLC was 1.18 µM

###

- System: IGROV1 ovarian
- test: NCI tumour cell line growth inhibition, 48 h
reported endpoint: TGI

compound COC(OC)c1cc2c(cc1C(=O)[C@@]13CCC[C@@H]1NC(=O)O3)OCO2 , TGI observed: > 100 µM

GET /value?item= Cc1nc(N)nc2ccccc12 &field=TGI returns > 100 µM

Recorded result, COC(=O)CC(C(C(C)=O)C(=O)OCc1ccccc1)N1C(=O)OCC1c1ccccc1 (stereo not given) , TGI: > 100 µM

Summary for this compound, Oc1ccc(Cl)cc1Cc1cc(Cl)ccc1O : TGI is 12.5 µM

For Cc1nc(-n2nc(-c3ccccc3)cc2-c2ccccc2)sc1C(/C=C/c1ccc([N+](=O)[O-])cc1)=N/NC(=O)c1ccncc1 the compound record lists TGI as > 100 µM

---
Sample CC1CCC2N(C1)CC1C3(O)CC45OC6(O)C(O)CCC4(C)C6CCC5C3(O)CC(O)C1(O)C2(C)O (stereo not given) ; TGI observed: > 100 µM

Entry under test: O=C1CN(/N=C/c2ccc(-c3ccc(F)cc3)o2)C(=O)N1 . Its TGI was > 100 µM

Per the records, this compound ( CC1(C)OC2C(COS(N)(=O)=O)SC(n3cnc4cncnc43)C2O1 (stereo not given) ) has TGI equal to > 100 µM

The reported TGI of the compound c1ccc(-c2nnn(CCN3CCCCC3)n2)cc1 was > 100 µM

// sample C#CCC1(C(=O)OCC)C(=O)c2ccccc2N(C)C1=O (stereo not given) , its TGI was > 100 µM

According to the records, this compound COc1ccc(S(=O)(=O)N(C)CC(=O)O)cc1 displays TGI of > 100 µM

Value of TGI reported for the compound CC(=O)/C(=C\c1ccc(Cl)c(Cl)c1)C(=O)C(C)CN(C)C (stereo not given) is 4.88 µM

Record COc1nc(NC2OC(COC(C)=O)C(OC(C)=O)C(OC(C)=O)C2OC(C)=O)c(-c2csc(N)n2)c(=O)n1C (stereo not given) . Reported TGI: > 100 µM

# TGI (compound: NCCC1CN(C(=O)OCc2ccccc2)c2ccccc21 (stereo not given) ) is 33 µM

Note to self: TGI recorded for O=[N+]([O-])c1cccnc1-n1cnc2ccccc21 was > 100 µM

Just so you know, measured TGI for CC1(C2CCC3(C)OC3C2)CO1 (stereo not given) came out at > 100 µM

What the record says about CCSC(SCC)=C1C(=O)N(c2ccccc2)N=C1C : TGI is 33.2 µM

For this compound ( COc1ccccc1NC(=O)C(CC(C(=O)Nc1ccccc1OC)/C(C)=N/Nc1ccc([N+](=O)[O-])cc1[N+](=O)[O-])/C(C)=N/Nc1ccc([N+](=O)[O-])cc1[N+](=O)[O-] (stereo not given) ), measured TGI is > 100 µM

Data point: C=C(C)[C@@H]1CC[C@]2(C(=O)O)CC[C@]3(C)[C@H](CCC4[C@@]5(C)CC[C@H](C(=O)/C=C/c6ccc(O)c(O)c6)C(C)(C)[C@@H]5CC[C@]43C)[C@@H]12 (stereo not given in full) ; TGI = > 100 µM

Item: CC(=O)N(Cc1ccccc1)c1ccccc1I(=O)=O | TGI: > 100 µM
